The reported measurements were obtained from ChEMBL document CHEMBL1201862.

Test system: SW-620
Assay: NCI tumour cell line growth inhibition, 48 h
Activity calls are given as the source filed them. Rule as the data show it: active = GI50 up to about 1.1 µM and inactive = higher.
Parameter GI50: see the listing below.
MEASURED_METRIC: GI50

* O=C1OC(c2ccccc2)=N/C1=C\c1ccc(N(CCCl)CCCl)cc1 | > 100 µM (inactive)
* O=c1[nH]c(=O)n(C2OC(CO)C(O)C2O)cc1OCCCc1ccccc1 (stereo not drawn) | > 100 µM (inactive)
* COc1cc2ccc3c4cc(OC)c(OCc5ccccc5)cc4cnc3c2cc1OC | > 100 µM (inactive)
* CN1N=C(c2ccncc2)OC1c1cccc(C(F)(F)F)c1 (stereo not drawn) | > 100 µM (inactive)
* Nc1ccc(-c2cc(C(=O)Nc3nccs3)nc(S)n2)cc1 | > 100 µM (inactive)
* CC(=O)Nc1ccc(S(=O)(=O)c2nnc(NC(C)=O)s2)cc1 | > 100 µM (inactive)
* CC1CC[C@@]2(OC1)OC1C[C@H]3[C@@H]4CC=C5CC(OC6OC(CO)C(OC7OC(CO)C(O)C(OC8OCC(O)C(O)C8O)C7OC7OC(CO)C(OC8OC(C)C(OC9OC(C)C(O)C(O)C9O)C(O)C8O)C(O)C7O)C(O)C6O)CCC5(C)[C@H]4CCC3(C)C1[C@@H]2C (stereo partly drawn) | 11.4 µM (inactive)
* COC(=O)[C@](NC(=O)OCc1ccccc1)([C@@H](C)[S+]([O-])c1ccc(C)cc1)C(F)(F)F (stereo partly drawn) | 53.2 µM (inactive)

###

System: NCI-H460
Experiment: NCI tumour cell line growth inhibition, 48 h
Calls of active or inactive are those of the source. No stated cut-off is given here; in the data, active = GI50 up to about 1.1 µM and inactive = higher.
MEASURED_METRIC: GI50

• N[C@H]1c2c(Br)sc(Br)c2C(=O)[C@H]1O = 19.2 µM (inactive)
• O=[N+]([O-])C(=C(Nc1ccccc1)Nc1ccccc1)/C(Cl)=C(\Cl)[N+](=O)[O-] = 14.7 µM (inactive)
• O=C1c2c(O)cc(O)cc2OC(c2ccc(O)cc2O)C1O (centres undefined) = 57.8 µM (inactive)
• Fc1ccc(C2SCc3nc4ccccc4n32)c(F)c1 (centres undefined) = 54 µM (inactive)
• COC(=O)/C=C(\S/C=C(/c1ccccc1)N1CCn2c(C(=O)c3ccccc3)c(C(=O)OC)c(C(=O)OC)c21)C(=O)OC = > 10 µM (inactive)
• CCC1(O)CC(OC2CC(N(C)C)C(OC3CC(O)C(OC4CCC(=O)C(C)O4)C(C)O3)C(C)O2)c2c(cc3c(c2O)C(=O)c2c(O)ccc(O)c2C3=O)C1C(=O)OC (centres undefined) = < 0.01 µM (active)
• CCOC(=O)Cc1nc2cc(F)c(F)cc2[nH]c1=O = > 100 µM (inactive)
• CNC(=O)c1cc(NC(=O)N(CCC#N)CCN(C(=O)N[C@@H](Cc2ccccc2)C(=O)N[C@@H](CC(C)C)C(=O)NC)c2ccccc2)ccc1OC = 15.8 µM (inactive)
• C#CCNC(=O)NC(CCCCNC(=O)OCc1ccccc1)C(=O)OCc1ccccc1 (centres undefined) = 93.5 µM (inactive)

###

Tested on: OVCAR-4
Experiment: NCI tumour cell line growth inhibition, 48 h
Calls of active or inactive are those of the source. No stated cut-off is given here; in the data, active = GI50 up to about 1.1 µM and inactive = higher.
Parameter GI50: see the listing below.
MEASURED_METRIC: GI50

- COC(=O)Cc1c(-c2c(CC(=O)OC)c3ccccc3n2C2OC(COC(C)=O)C(OC(C)=O)C(OC(C)=O)C2OC(C)=O)[nH]c2ccccc12 (stereo unspecified): > 100 µM (inactive)
- CC1C(=O)OC2CC[N+]3([O-])CC=C(COC(=O)C(C)(O)C1(C)O)C23 (stereo unspecified): > 100 µM (inactive)
- N#CCCN(CCC#N)c1ccc(C(=N/c2ccc(F)cc2)/N=N/c2ccc(Cl)cc2)cc1: > 100 µM (inactive)
- O=C1C2=C(CC3=C(C2)CS(=O)(=O)C3)C(=O)C2=C1CC1=C(C2)CS(=O)(=O)C1: 10.9 µM (inactive)
- Cc1ccc(C2(O)CC(c3ccc([N+](=O)[O-])o3)=NN2C(=O)COc2ccccc2Cl)cc1 (stereo unspecified): 17.3 µM (inactive)
- CN1CC(c2ccccc2)=CC2=C1C=CC(=N)/C2=N\N: > 100 µM (inactive)
- Cc1ccc(S(=O)(=O)NC(C)C(=O)O)cc1 (stereo unspecified): > 100 µM (inactive)
- N#Cc1c(C#N)c(-c2ccccc2)n(/N=C\c2ccccc2)c1N: 12.9 µM (inactive)
- COC(=O)NC(C(F)(F)F)(C(F)(F)F)P1(=O)OCCCO1: 32.6 µM (inactive)
- COc1cccc(/C=C2\C(=O)N(C(=O)c3ccc(NC(C)=O)cc3)N=C2C)c1: > 100 µM (inactive)
- CC1=C(C(=O)c2ccccc2)C23C(=O)N(c4ccccc4)C(=O)C2=C(O)C=CC3(O)N1 (stereo unspecified): 17.8 µM (inactive)
- Oc1ccc(/C=C/c2cccc(/C=C/c3ccc(O)c(O)c3)n2)cc1O: 6.04 µM (inactive)
- COc1cc(OC)c2c(=O)c3cccc(C)c3n(C)c2c1: 64 µM (inactive)
- CCCCCCCCCCCCCCCC(=O)OC1C(O)C(CO)OC(OC)C1NC(=O)N(CCCl)N=O (stereo unspecified): 20.6 µM (inactive)
- CC(C(=O)c1ccc(O)cc1)C1(O)C(=O)Nc2c(Cl)cc(Cl)cc21 (stereo unspecified): 21.7 µM (inactive)
- C[C@H]1O[C@@H](c2c(O)ccc3ccccc23)C[C@@H](N(C)C)C1O (stereo partly specified): > 100 µM (inactive)
- ClC1(Cl)C2CCOC21n1cnc2ccccc21 (stereo unspecified): 67.3 µM (inactive)
- Cc1cccc(C)c1/N=N/c1ccc(O)c(CN(C)C)c1: 47.9 µM (inactive)
- O=C1CC(c2c(-c3ccccc3)[nH]c3ccccc23)C(=O)N1 (stereo unspecified): > 100 µM (inactive)
- c1ccc(Cn2c(-c3ccc(-c4ccccc4)cc3)cc3ccccc32)cc1: > 100 µM (inactive)
- CC(=O)Oc1c(-c2ccccc2)oc2ccccc12: 3.19 µM (inactive)

###

Tested on: HCC 2998
Test: NCI tumour cell line growth inhibition, 48 h
Active and inactive are the calls of the source. No stated cut-off is given here; in the data, active = GI50 up to about 1.1 µM and inactive = higher.
Possible outcomes: TRUE = active, FALSE = inactive

- CN(C)c1ccc(/N=C2/C=CC(=C(C#N)C#N)c3ccccc32)cc1: TRUE
- COc1ccc(C(=O)NCCC2CN(S(=O)(=O)C(F)(F)F)c3ccccc32)c(OC)c1 (stereo unspecified): FALSE
- CCc1nc2c(O)ccc(O)c2nc1C: FALSE
- COCN1COCN/C1=N\C#N: FALSE
- CCC/N=C(/NC(=O)c1ccc(Cl)cc1)SC: FALSE
- Cc1ccc(S(=O)(=O)N2c3ccccc3[C@H]3CCC=C[C@H]32)cc1: FALSE

###

Parameter GI50: see the listing below.
System: NCI-H226
Assay: NCI tumour cell line growth inhibition, 48 h
Active and inactive are the calls of the source. No stated cut-off is given here; in the data, active = GI50 up to about 1.1 µM and inactive = higher.
MEASURED_METRIC: GI50

- Cc1nc(-c2cc3cc([N+](=O)[O-])ccc3oc2=O)cs1: > 100 µM (inactive)
- CCCCCCCCCCCCOc1ccc(/C=C/C2=[N+](CCCl)CCO2)cc1: > 100 µM (inactive)
- CC(C)(C)OC(=O)NCC(C#N)CNC(=O)OC(C)(C)C: > 100 µM (inactive)
- N=c1sc(N2CCOCC2)nn1CC(=O)c1ccccc1: > 100 µM (inactive)
- COc1cc(OC)cc(Oc2nc3ccccc3nc2C(F)(F)F)c1: > 100 µM (inactive)
- COc1ccc(Cc2nc3cc([N+](=O)[O-])ccc3n2C[C@@H]2CCCN3CCCCC23)cc1 (stereo partly drawn): 31.6 µM (inactive)
- N#CC1=C2SCCN2C(=O)C(C#N)C12CCCCC2 (stereo not drawn): > 100 µM (inactive)
- Nc1nc(-c2ccccc2)nc2oc(-c3cccs3)nc12: > 100 µM (inactive)
- CC(=O)c1ccc2c3c1[C@@H]1O[C@@H]1c1cccc(c1-3)[C@@H]1O[C@H]21: 37.8 µM (inactive)
- COC(=O)/C(C#N)=C1\CCc2ccccc21: > 100 µM (inactive)
- C/C(=N/NC(=S)N1CCCCCC1)c1ccccc1O: > 22 µM (inactive)
- CCO/C([O-])=C(\C(=O)c1ccccc1)[n+]1c(C)sc2ccccc21: > 100 µM (inactive)
- NC(Cc1ccccc1)C(=O)N[C@H]1c2ccsc2/C(=N/O)[C@H]1O (stereo partly drawn): > 100 µM (inactive)
- CN(c1ccccc1)c1nc(=[N+]2CCCC2)ss1.[O-][Cl+3]([O-])([O-])[O-]: > 100 µM (inactive)
- Cc1ccc(O)c(C(=O)CCCC(=O)c2cc(C)ccc2O)c1: > 100 µM (inactive)
- CCCCNC(=O)Cn1c2ccc(Br)cc2c2nc3ccccc3nc21: 12.3 µM (inactive)
- CCc1n[nH]c(=O)n1O: > 100 µM (inactive)
- N/N=c1\[nH]c2ccccc2o1: > 100 µM (inactive)
- CN(C)c1ccc(/C=C2\N=C(N/N=C/c3ccc(N(C)C)cc3)NC2=O)cc1: > 100 µM (inactive)
- COc1cccc(OC)c1C1ON=C(c2ccccc2)N1C12CC3CC(CC(C3)C1)C2 (stereo not drawn): > 100 µM (inactive)
- COC(=O)NC(C(F)(F)F)(C(F)(F)F)P1(=O)OCCCO1: 16.2 µM (inactive)
- C=C1C(=O)OC2CC1C(O)C/C(C)=C/CC/C(C)=C/C(O)CC2C (stereo not drawn): 9.33 µM (inactive)
- Cc1ccccc1C(=O)NC(O)(C(F)(F)F)C(F)(F)F: > 100 µM (inactive)
